Data credit: ChEMBL document CHEMBL3639113

pIC50 by entry:
- Target Desc: Transient receptor potential cation channel subfamily A member 1 (Homo sapiens)
- Sequence (O75762 whole entry): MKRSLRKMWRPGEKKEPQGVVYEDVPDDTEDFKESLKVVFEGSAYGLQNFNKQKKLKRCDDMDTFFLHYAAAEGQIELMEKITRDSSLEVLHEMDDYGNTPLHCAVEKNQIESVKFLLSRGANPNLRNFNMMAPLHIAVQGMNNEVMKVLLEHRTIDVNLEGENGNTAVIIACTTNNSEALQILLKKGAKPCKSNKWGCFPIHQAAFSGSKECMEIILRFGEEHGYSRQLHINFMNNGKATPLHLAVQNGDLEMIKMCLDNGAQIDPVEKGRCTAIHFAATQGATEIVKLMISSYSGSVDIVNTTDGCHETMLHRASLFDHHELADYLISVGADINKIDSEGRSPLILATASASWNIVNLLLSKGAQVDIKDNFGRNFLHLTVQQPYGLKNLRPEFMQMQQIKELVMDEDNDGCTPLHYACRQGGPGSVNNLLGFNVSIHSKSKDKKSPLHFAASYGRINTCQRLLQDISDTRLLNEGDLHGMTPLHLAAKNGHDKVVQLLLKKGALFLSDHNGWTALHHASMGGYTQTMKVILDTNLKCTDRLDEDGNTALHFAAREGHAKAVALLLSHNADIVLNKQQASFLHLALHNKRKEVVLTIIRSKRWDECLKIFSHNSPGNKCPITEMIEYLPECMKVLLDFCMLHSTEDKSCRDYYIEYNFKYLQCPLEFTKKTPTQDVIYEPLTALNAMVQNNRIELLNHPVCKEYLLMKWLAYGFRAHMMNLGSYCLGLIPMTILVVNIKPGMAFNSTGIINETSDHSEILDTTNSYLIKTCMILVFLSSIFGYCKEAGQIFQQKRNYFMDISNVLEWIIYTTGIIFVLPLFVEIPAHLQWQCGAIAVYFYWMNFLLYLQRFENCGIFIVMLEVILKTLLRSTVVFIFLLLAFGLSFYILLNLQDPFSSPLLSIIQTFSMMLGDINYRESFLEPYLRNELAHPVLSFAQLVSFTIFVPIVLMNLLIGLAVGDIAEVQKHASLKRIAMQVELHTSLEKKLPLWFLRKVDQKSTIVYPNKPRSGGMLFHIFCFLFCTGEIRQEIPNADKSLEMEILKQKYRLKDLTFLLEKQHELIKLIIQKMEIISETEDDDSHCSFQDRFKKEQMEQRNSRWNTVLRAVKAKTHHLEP
- Measurement Notes: FLIPR Calcium Assay: Ca2+ influx was measured using a FLIPR calcium assay kit (R8033; Molecular Devices, Sunnyvale, Calif.). The Ca2+ indicator dye was dissolved in Hanks' balanced salt solution supplemented with 20 mM HEPES buffer (HBSS/HEPES) according to the manufacturer instructions. Prior to start of the assay, the medium was removed by aspiration, and cells were loaded with 100 μL Ca2+ dye for 2 to 3 hours at room temperature. […] (4×) solutions of the test compounds were prepared in HBSS/HEPES, and 50 μL were added to the cells at a delivery rate of 10 μL/sec. Changes in fluorescence were measured over time in a fluorometric imaging plate reader (FLIPR, Molecular Devices). Two additions were made over the course of an experimental run. For agonist experiments, assay buffer was added at the 10 s time point, followed by addition of agonist at the 3 minute 10 sec time point.
pIC50: −log10 of the molar value.
Endpoint: pIC50

[[record]]
molecule_smiles = "CCC(=N\\O)/C(C)=C/c1ccc(F)c(C#N)c1"
endpoint = "pIC50"
censor_symbol = "<"
endpoint_result = 4.00

[[record]]
molecule_smiles = "CCC(=N\\OC)/C(C)=C/c1ccc(F)cc1"
endpoint = "pIC50"
censor_symbol = "="
endpoint_result = 5.08

